For each record, write down the corresponding Fold change in RNA expression between the ON state and the OFF state.
Test system: Renilla luciferase RNA
protocol summary: Barcoded aptazyme variant library screen: un-cleaved Renilla luciferase RNA by barcode read counts, HEK293-T cells
Assay type: cell-based
reported conditions: un-cleaved Renilla luciferase RNA by barcode read counts; with 1 mM theophylline (ON) over without theophylline (OFF); HEK293-T cells; triplicate

Answer with the recorded Fold change in RNA expression between the ON state and the OFF state for the molecule listed here: RA304 (nucleic acid, expressed or natural sequence) DNA: GCGCGAGAATACCAGCATCGTCTTGATGCCCTTGGAAGTCTCGCGTCCTGGATTCGCGGAAACGCGTACATCCAGCTGACGAGTCCCAAATAGGACGAAACGCGC 1.0

Answer with the recorded Fold change in RNA expression between the ON state and the OFF state for the molecule listed here: RA344 (nucleic acid, expressed or natural sequence) DNA: GCGCGTCCTGGATTCGCGGAAACCCGGAATACCAGCATCGTCTTGATGCCCTTGGAAGTCCGGGCGTACATCCAGCTGACGAGTCCCAAATAGGACGAAACGCGC 0.9

Answer with the recorded Fold change in RNA expression between the ON state and the OFF state for the molecule listed here: RA393 (nucleic acid, expressed or natural sequence) DNA: GCGCGTCCTGGATTCGCGGAAACGCGTACATCCAGCTGACGAGTCCCAAATAGGCGGAATACCAGCATCGTCTTGATGCCCTTGGAAGTCCGACGAAACGCGC 0.7

Answer with the recorded Fold change in RNA expression between the ON state and the OFF state for the molecule listed here: RA356 (nucleic acid, expressed or natural sequence) DNA: GCGCGTCCTGGATTCGCGGAAACGCGTACATCCAGCTGACGAGTCCCAAATAGGACGAAAGAGAATACCAGCATCGTCTTGATGCCCTTGGAAGTCTCCGCGC 0.8

Answer with the recorded Fold change in RNA expression between the ON state and the OFF state for the molecule listed here: RA338 (nucleic acid, expressed or natural sequence) DNA: GCGCGTCCTGGATTCGCGGAAACGAGAATACCAGCATCGTCTTGATGCCCTTGGAAGTCTCGCGCGTACATCCAGCTGACGAGTCCCAAATAGGACGAAACGCGC 0.9

Answer with the recorded Fold change in RNA expression between the ON state and the OFF state for the molecule listed here: RA424 (nucleic acid, expressed or natural sequence) DNA: GCGCGTCCTGGATTCGCGGAAACGCGTACATCCAGCTGCGAGAATACCAGCATCGTCTTGATGCCCTTGGAAGTCTCGACGAGTCCCAAATAGGACGAAACGCGC 0.6

Answer with the recorded Fold change in RNA expression between the ON state and the OFF state for the molecule listed here: RA318 (nucleic acid, expressed or natural sequence) DNA: GCGGAATACCAGCATCGTCTTGATGCCCTTGGAAGTCCGCGCGTCCTGGATTCGCGGAAACGCGTACATCCAGCTGACGAGTCCCAAATAGGACGAAACGCGC 0.9

Answer with the recorded Fold change in RNA expression between the ON state and the OFF state for the molecule listed here: RA399 (nucleic acid, expressed or natural sequence) DNA: GCGCGTCCTGGATTCGCGGAAACGCGTACATCCACGAGAATACCAGCATCGTCTTGATGCCCTTGGAAGTCTCGGCTGACGAGTCCCAAATAGGACGAAACGCGC 0.7

Answer with the recorded Fold change in RNA expression between the ON state and the OFF state for the molecule listed here: RA366 (nucleic acid, expressed or natural sequence) DNA: GCGCGTCCTGGATTCGCGGAAGAGAATACCAGCATCGTCTTGATGCCCTTGGAAGTCTCACGCGTACATCCAGCTGACGAGTCCCAAATAGGACGAAACGCGC 0.8
